# tested.on: H^+ +K^+ ATPase (Oryctolagus cuniculus)
# Construct: gastric acid secretory cells of a rabbit gastric mucosa were isolated and vesicle containing H^+ +K^+ ATPase was prepared; from tissue; host or cells: rabbit gastric mucosa, acid secretory cells; vesicles by Ficoll discontinuous density gradient
# Sequence (P27112 whole entry): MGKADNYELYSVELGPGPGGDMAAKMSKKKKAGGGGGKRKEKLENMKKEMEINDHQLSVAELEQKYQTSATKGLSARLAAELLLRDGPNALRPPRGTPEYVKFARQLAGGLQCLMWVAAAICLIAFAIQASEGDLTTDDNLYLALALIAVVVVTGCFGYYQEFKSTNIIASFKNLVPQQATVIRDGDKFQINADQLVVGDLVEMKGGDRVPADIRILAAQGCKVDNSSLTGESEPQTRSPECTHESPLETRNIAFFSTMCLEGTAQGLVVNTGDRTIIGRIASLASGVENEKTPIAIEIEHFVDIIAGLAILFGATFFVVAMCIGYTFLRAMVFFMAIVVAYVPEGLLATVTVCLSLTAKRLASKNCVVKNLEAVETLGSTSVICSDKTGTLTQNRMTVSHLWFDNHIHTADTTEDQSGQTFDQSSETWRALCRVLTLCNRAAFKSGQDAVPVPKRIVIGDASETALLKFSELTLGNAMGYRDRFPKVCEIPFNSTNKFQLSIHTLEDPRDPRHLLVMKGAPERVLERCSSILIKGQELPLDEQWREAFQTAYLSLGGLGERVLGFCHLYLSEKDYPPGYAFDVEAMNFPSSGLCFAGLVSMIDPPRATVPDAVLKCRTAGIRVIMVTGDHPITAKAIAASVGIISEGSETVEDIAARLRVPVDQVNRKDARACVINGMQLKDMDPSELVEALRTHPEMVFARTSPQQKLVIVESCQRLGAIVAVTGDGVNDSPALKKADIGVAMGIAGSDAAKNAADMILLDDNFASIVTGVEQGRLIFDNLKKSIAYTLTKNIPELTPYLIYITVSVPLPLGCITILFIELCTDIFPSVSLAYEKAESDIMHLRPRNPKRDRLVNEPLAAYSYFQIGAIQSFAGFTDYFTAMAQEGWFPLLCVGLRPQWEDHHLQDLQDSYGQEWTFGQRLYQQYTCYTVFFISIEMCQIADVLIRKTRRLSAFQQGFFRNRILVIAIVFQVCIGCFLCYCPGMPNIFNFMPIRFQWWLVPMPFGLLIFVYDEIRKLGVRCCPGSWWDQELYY
# Sequence (P18597 whole entry partner): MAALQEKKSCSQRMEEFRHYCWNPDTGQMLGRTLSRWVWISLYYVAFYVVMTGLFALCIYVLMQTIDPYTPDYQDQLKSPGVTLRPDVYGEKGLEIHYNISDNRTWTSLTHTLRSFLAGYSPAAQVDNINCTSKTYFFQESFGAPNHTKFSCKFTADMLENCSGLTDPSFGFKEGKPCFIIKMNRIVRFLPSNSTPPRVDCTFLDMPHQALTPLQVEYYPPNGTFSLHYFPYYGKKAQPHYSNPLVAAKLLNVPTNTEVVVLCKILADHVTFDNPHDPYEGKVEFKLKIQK
# method.notes: H+ + K+ ATPase inhibitory effect (vesicles from rabbit gastric mucosa cells)
# Format: biochemical
# study.conditions: 2×10^-4 M test compound, 25 min room temperature preincubation at pH 6.0; reaction pH 7.4, 37° C., 15 min
Label T when inhibition at 200 µM is at or above 90%; otherwise label F.

- compound: "Cc1cc2nc(C)c([S+]([O-])Cc3ccccc3N(C)C)nc2cc1C (stereo not shown)"
  assigned.class: "F"
- compound: "[O-][S+](Cc1ccccn1)c1cnc2ccccc2n1 (stereo not shown)"
  assigned.class: "T"
- compound: "Cc1nc2ccccc2nc1[S+]([O-])Cc1ccccn1 (stereo not shown)"
  assigned.class: "T"
- compound: "CN(C)c1ccccc1C[S+]([O-])c1cnc2ccccc2n1 (stereo not shown)"
  assigned.class: "T"
- compound: "Cc1nc2ccccc2nc1[S+]([O-])Cc1ccccc1N(C)C (stereo not shown)"
  assigned.class: "T"
